Values compiled from ChEMBL document CHEMBL5291721.

Assign AC50 to each entry below.
# TARGET OF ASSAY: Voltage-gated inwardly rectifying potassium channel KCNH2 (Homo sapiens)
# Sequence (Q12809 whole entry): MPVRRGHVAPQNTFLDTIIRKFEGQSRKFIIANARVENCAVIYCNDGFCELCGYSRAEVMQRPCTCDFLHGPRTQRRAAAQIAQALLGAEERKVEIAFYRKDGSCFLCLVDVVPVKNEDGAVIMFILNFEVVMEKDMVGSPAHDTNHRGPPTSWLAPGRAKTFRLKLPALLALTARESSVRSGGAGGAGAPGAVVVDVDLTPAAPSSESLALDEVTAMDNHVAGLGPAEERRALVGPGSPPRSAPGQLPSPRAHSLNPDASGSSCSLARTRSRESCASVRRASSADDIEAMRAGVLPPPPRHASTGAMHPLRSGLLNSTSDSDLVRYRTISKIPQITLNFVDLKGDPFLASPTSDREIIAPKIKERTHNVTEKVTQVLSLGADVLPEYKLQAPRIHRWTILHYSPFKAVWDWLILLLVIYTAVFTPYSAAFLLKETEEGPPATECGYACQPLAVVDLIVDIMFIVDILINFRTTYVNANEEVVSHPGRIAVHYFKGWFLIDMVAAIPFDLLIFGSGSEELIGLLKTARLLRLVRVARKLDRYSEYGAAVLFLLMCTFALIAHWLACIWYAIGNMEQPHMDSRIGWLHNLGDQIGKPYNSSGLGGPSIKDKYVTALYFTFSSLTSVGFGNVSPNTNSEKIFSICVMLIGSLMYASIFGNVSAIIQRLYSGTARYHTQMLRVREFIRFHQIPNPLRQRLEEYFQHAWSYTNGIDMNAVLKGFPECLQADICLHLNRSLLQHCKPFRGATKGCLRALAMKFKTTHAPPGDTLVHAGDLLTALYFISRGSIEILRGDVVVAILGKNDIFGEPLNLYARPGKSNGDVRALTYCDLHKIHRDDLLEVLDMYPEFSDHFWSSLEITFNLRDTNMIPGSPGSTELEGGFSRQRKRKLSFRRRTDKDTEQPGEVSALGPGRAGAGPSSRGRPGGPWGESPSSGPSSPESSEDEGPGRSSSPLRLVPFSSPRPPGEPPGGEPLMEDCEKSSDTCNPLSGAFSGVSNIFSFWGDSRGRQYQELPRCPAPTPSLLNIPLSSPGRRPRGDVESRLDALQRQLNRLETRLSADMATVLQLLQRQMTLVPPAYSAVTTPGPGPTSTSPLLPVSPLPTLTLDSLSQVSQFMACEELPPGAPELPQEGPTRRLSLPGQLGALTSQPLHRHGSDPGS
# Format: functional
# PROTOCOL CONDITIONS: read-out: AC50

Some solved cases for reference:
INSERT INTO measurements (compound, observed_measurement) VALUES
  ('OB1OCc2cc(F)ccc21', '> 30 µM'),
  ('O=[N+]([O-])O[C@@H]1CO[C@H]2[C@@H]1OC[C@@H]2O [ISOSORBIDE MONONITRATE]', '> 30 µM'),
  ('Cc1c(C(=O)NN2CCCCC2)nn(-c2ccc(Cl)cc2Cl)c1-c1ccc(Cl)cc1', '> 30 µM'),
  ('CC1(C)CCC(CN2CCN(c3ccc(C(=O)NS(=O)(=O)c4ccc(NCC5CCOCC5)c([N+](=O)[O-])c4)c(Oc4cnc5[nH]ccc5c4)c3)CC2)=C(c2ccc(Cl)cc2)C1', '> 30 µM'),
  ('CC(=O)c1ccc2c(c1)N(CCCN(C)C)c1ccccc1S2', '2.5 µM'),
  ('COc1cc(NC(C)CCCN)c2ncccc2c1 (stereo not drawn)', '20 µM'),
  ('COCCCN1CCC(NC(=O)c2cc(Cl)c(N)c3c2OCC3)CC1 [PRUCALOPRIDE]', '> 30 µM');

CN1C(=O)C(O)N=C(c2ccccc2Cl)c2cc(Cl)ccc21 (stereo not drawn) yielded AC50 of > 30 µM
